biological target: SAP05 of Aster Yellows phytoplasma strain Witches Broom (AYWB), residues 33 to 135 (Aster Yellows phytoplasma strain Witches Broom (AYWB)); assay: ITC; SPL5^ZnF from the syringe (250 μM for wild-type SAP05, 200 μM for the SAP05–Rpn10^vWA complex or SAP05 mutants) into 20 μM partner in the cell; 25 °C, 20 mM HEPES pH 7.5, 150 mM NaCl; one-site binding model
testReadout: pKd
Numbers only, as −log10 of the molar value.

Incoming: Recall and state the measured pKd for ZnF domain of Arabidopsis thaliana SPL5, residues 60 to 127 (domain or fragment) SRLCQVDRCTVNLTEAKQYYRRHRVCEVHAKASAATVAGVRQRFCQQCSRFHELPEFDEAKRSCRRRL .
Outgoing: 6.28

Just for reference, paper PMC10710061 is where these values come from.
